Test system: human prostate adenocarcinoma PC-3 cells
Test: MTT cytotoxicity assay, PC-3
Type: cell-based
Conditions: Homo sapiens, MTT, 72 h, n = 3, ± SD, read-out: Adhesive Cell Cultures, IC50 PC-3
Returns: string. Value is Condition met if measured IC50 is below 5 µM, and Condition not met if it is greater than or equal to it.

See these solved cases before continuing.
- COc1cc([C@@H]2c3cc4c(cc3[C@@H](O[C@@H]3O[C@@H]5CO[C@@H](C)O[C@H]5[C@H](O)[C@H]3O)[C@H]3COC(=O)[C@H]23)OCO4)cc(OC)c1O [Etoposide, etoposide, reference compound]: Condition met
- C=C1C2=C(C(=O)N1OC)[C@@H](N1CCCC1)[C@@](C)(O)[C@H](CCCCC)O2: Condition met
- C=C1C2=C(C(=O)N1OC)[C@@H](NCc1ccccc1)[C@@](C)(O)[C@H](CCCCC)O2: Condition not met
- C=C1C2=C(C(=O)N1OC)[C@H](O)[C@@](C)(O)[C@H](CCCCC)O2 [PPA, phaeosphaeride A]: Condition not met
- C=C1C2=C(C(=O)N1OC)[C@@H](NC)[C@@](C)(O)[C@H](CCCCC)O2: Condition met

Incoming: Is IC50 strictly under 5 µM for the entry C=C1C2=C(C(=O)N1OC)[C@@H](NCCCCO)[C@@](C)(O)[C@H](CCCCC)O2 ?
Outgoing: Condition met

Incoming: IC50 under 5 µM? Item: C=C1C2=C(C(=O)N1OC)[C@@H](N1CCC(O)CC1)[C@@](C)(O)[C@H](CCCCC)O2
Outgoing: Condition met
